test.parameters: 25 °C
Would you mind labelling by solubility? At or over 0.08 mM is rule met, under is rule not met.

[[record]]
compound = "Clc1cccc(C(Cl)(Cl)Cl)n1"
class_name = "rule met"

[[record]]
compound = "O=C(Nc1ccc(F)cc1F)c1cccnc1Oc1cccc(C(F)(F)F)c1"
class_name = "rule not met"

[[record]]
compound = "CC(C)(SC(=O)N1CCCCC1)c1ccccc1"
class_name = "rule not met"

[[record]]
compound = "CSC(=O)c1cccc2nnsc12"
class_name = "rule not met"

[[record]]
compound = "CS(=O)(=O)c1ccc(C(=O)C2C(=O)CCCC2=O)c(Cl)c1"
class_name = "rule met"


Determine whether measured solubility meets or exceeds 0.08 mM for C=CCC1=C(C)C(OC(=O)C2C(C=C(C)C)C2(C)C)CC1=O (configuration not stated)
rule not met

One more compound: CCC1(CC2(c3cccc(Cl)c3)CO2)C(=O)c2ccccc2C1=O (configuration not stated)
rule not met

Follow-up item: CS/C(C)=N/OC(=O)N(C)SN(C)C(=O)O/N=C(\C)SC
rule not met

Now consider OC(c1ccc(Cl)cc1)(c1ccc(Cl)cc1)C(Cl)(Cl)Cl and answer again.
rule not met

Likewise for CNC(=O)ON=C(SC)C(=O)N(C)C ?
rule met

Then CNC(=O)Oc1cccc(N=CN(C)C)c1.Cl ?
rule met

Try this compound next: O=C(NC(=O)c1c(F)cccc1F)Nc1ccc(Cl)c(Oc2ncc(C(F)(F)F)cc2Cl)c1
rule not met

* * *

test.parameters: pH 5.1; 25 °C
I'd be grateful if you could share measured solubility for these entries.
One number for each entry, in µM.

[[record]]
given_smiles = "COc1cc(OC)nc(N=C(O)NS(=O)(=O)c2c(Cl)nc3ccccn23)n1"
endpoint_label = "solubility"
observed = 16.3


Next, consider the following molecule.
Fill in: solubility of Cc1cc(C)nc(NC(=O)NS(=O)(=O)c2ccccc2C(=O)OC2COC2)n1 is ___
128

* * *

test.parameters: pH 2.5
endpoint.label: solubility (µM)
Answers are plain numbers, in µM.

Please report the recorded solubility for Cc1ccn2nc(S(=O)(=O)Nc3c(F)cccc3F)nc2n1 .
150

* * *

test.parameters: pH 2.6; 25 °C
endpoint.label: solubility

If you can, please state the reported solubility value of CC(Oc1ccc(Oc2ncc(C(F)(F)F)cc2Cl)cc1)C(=O)O (stereo unspecified) .
120 µM

* * *

test.parameters: pH 7.3; 20 °C
endpoint.label: solubility (µM)
Numbers only, in µM.

Which value of solubility has been reported for CCN(CC)c1nc(C)cc(OP(=S)(OC)OC)n1 in the records?
45.5

* * *

test.parameters: 25 °C
endpoint.label: solubility (µM)
Answers are plain numbers, in µM.

Solved cases below.
[[record]]
compound = "CC(C)(C)[C@H](O)/C(=C\\c1ccc(Cl)cc1)n1cncn1"
observed = 28.8

[[record]]
compound = "CCOc1nc(C(Cl)(Cl)Cl)ns1"
observed = 473

[[record]]
compound = "NC(=O)C1(N2C(=O)c3cccc(Cl)c3C2=O)CCCCC1"
observed = 97.8


Provide solubility values for the following items, in order.
1. COC(=O)c1c(Cl)c(Cl)c(C(=O)OC)c(Cl)c1Cl
2. C#CC(OC(=O)C1C(C=C(C)C)C1(C)C)/C(C)=C/CC (configuration not stated)
3. CNC(=O)N(C)c1nnc(C(C)(C)C)s1
4. C#CCN1CC(=O)N(COC(=O)[C@@H]2[C@@H](C=C(C)C)C2(C)C)C1=O
5. CC(C)C1(C)N=C(c2nc3ccccc3cc2C(=O)O)NC1=O (configuration not stated)
6. CCCCOCCOCCOCc1cc2c(cc1CCC)OCO2

1.51
0.404
10500
294
289
42.2

For every item below, please supply its solubility.
1. CCOCOc1ccc(C(=O)Nc2cccc(Cl)c2Cl)cc1
2. O=C1c2ccccc2C(=O)N1SC(Cl)(Cl)Cl
3. CC(C)OC(=O)C(C(=O)OC(C)C)=C1SCCS1

1: 2.7; 2: 2.7; 3: 175
